# Target System: Aldehyde dehydrogenase 1A1 (Homo sapiens) (UniProt P00352)
# Experimental Protocol: qHTS for Inhibitors of the Aldehyde Dehydrogenase Family (ALDH1A1) Confirmatory screens (AID 2061316); further: nearly all actives have a fitted effect of over 65% in size
# Test Context: ALDH inhibition qHTS; series mostly up to 47.3 µM
Records with an inconclusive call do not appear. Active and inactive are the calls of the source. The call rests on the fitted dose curve; in most records, active means well fitted inhibition curve with a large enough effect; inconclusive means small, poorly fitted or top-dose-only effect; inactive means no such curve, though single readings can be large or run the other way.
Tick one outcome: YES for active, NO for inactive

Previously resolved entries follow.
> print(dat)
                                   compound  assigned.class
1  CCOC(=O)c1[nH]c2c(c1C)C(=O)CC(c1ccco1)C2 (stereo not given)             YES
2  COc1ccc(CNc2ccc(S(=O)(=O)Nc3nccs3)cc2)cc1O             YES
3  NC(=O)C1CCN(c2nccc(-c3ccc4c(c3)OCCCO4)n2)CC1             YES
4  CC(C)Sc1ncc(Cl)c(C(=O)Nc2nc3ccc(S(C)(=O)=O)cc3s2)n1              NO
5  Cc1cc(-c2nnc3n2CCCCC3)c(C)n1-c1ccc([N+](=O)[O-])cc1             YES
6  Cc1cc(C)nc(NC(=S)N2CCN(c3ccc4nccn4c3)CC2)c1             YES

What did the test return for CC(=O)Nc1sc2c(c1-c1ccc(N(C)C)cc1)CCNC2 ?
YES

What did the test return for Cc1oc(-c2ccccc2F)nc1CS(=O)(=O)CC(=O)N1CCN(c2cccc(C(F)(F)F)c2)CC1 ?
NO

What did the test return for CN(C)c1cccc(-c2cnc(N3CCC(C(N)=O)CC3)nc2)c1 ?
YES

What did the test return for CC(=O)N1CCN(c2ccc(NCc3cccc(C)c3)cc2)CC1 ?
YES
